Value source: ChEMBL document CHEMBL4152362

# protocol-summary: Apparent permeability of the compound after 4 hrs by PAMPA
# Type: ADME
result-type: Papp at 4 h (×10⁻⁶ cm/s)
Give bare numbers, in ×10⁻⁶ cm/s.

Look over these answered cases.
Give its Papp at 4 h value. Item: `Cn1c(COc2cccc(C(=O)O)c2)nc2ccc(Oc3ccc(Cl)c(F)c3)nc21`
25.6

Please do the same for `Cn1c(COc2cccc(C(=O)O)c2)nc2ccc(Oc3cc(Cl)ccn3)cc21` as well.
10.3

Please do the same for `Cc1ccc(Oc2ccc3nc(COc4cccc(C(=O)O)c4)n(C)c3c2)nc1` as well.
4.8

Please do the same for `Cc1ccc(Oc2ccc3nc(COc4cccc(C(=O)O)c4)n(C)c3n2)cc1F` as well.
14.8

Please do the same for `Cc1ccnc(Oc2ccc3nc(COc4cccc(C(=O)O)c4)n(C)c3c2)c1` as well.
3.5

Please do the same for `Cn1c(COc2cccc(C(=O)O)c2)nc2ccc(Oc3ccc4c(c3)OCC4)nc21` as well.
9.1

Please do the same for `Cc1cc(C)cc(Oc2ccc3nc(COc4cccc(C(=O)O)c4)n(C)c3n2)c1` as well.
17.4

Please do the same for `Cn1c(COc2cccc(C(=O)O)c2)nc2ccc(Oc3ccc(Cl)cn3)cc21` as well.
16.2

Please do the same for `Cn1c(COc2cccc(C(=O)O)c2)nc2ccc(Oc3ccc(F)cn3)cc21` as well.
4.7

Please do the same for `Cn1c(COc2cccc(C(=O)O)c2)nc2ccc(Oc3ccc(F)cc3)nc21` as well.
8.6

Batch request: Papp at 4 h per item, same order as input.
1. Cn1c(COc2cccc(C(=O)O)c2)nc2cnc(Oc3ccc4c(c3)CCC4)cc21
2. Cc1cc(F)cnc1Oc1ccc2nc(COc3cccc(C(=O)O)c3)n(C)c2c1
3. Cn1c(COc2cccc(C(=O)O)c2)nc2cnc(Oc3ccc(Cl)c(F)c3)cc21

16.5
8.3
11.2

Batch request: Papp at 4 h per item, same order as input.
1. Cn1c(COc2cccc(C(=O)O)c2)nc2ccc(Oc3ncc(Cl)cc3F)cc21
2. Cn1c(COc2cccc(C(=O)O)c2)nc2cnc(Oc3ccc4c(c3)OCC4)cc21
3. Cc1cc(Cl)cnc1Oc1ccc2nc(COc3cccc(C(=O)O)c3)n(C)c2c1

[11.8, 3.6, 13.7]

Batch request: Papp at 4 h per item, same order as input.
1. Cn1c(COc2cccc(C(=O)O)c2)nc2ccc(Oc3ncc(Cl)cc3Cl)cc21
2. Cc1ccc(C)c(Oc2ccc3nc(COc4cccc(C(=O)O)c4)n(C)c3c2)n1
3. Cn1c(COc2cccc(C(=O)O)c2)nc2ccc(Oc3ccc4c(c3)CCC4)nc21

1. 16.1
2. 11
3. 31.5

Give its Papp at 4 h value. Item: `Cn1c(COc2cccc(C(=O)O)c2)nc2ccc(Oc3ncccc3Cl)cc21`
8.1

---

# protocol-summary: Metabolic stability in human liver microsomes after 0.5 hrs
# Format: ADME, microsome
# assay-setup: read-out: Stability
result-type: remaining at 0.5 h (%)
Give bare numbers, in %.

Batch request: remaining at 0.5 h per item, same order as input.
1. Cn1c(COc2cccc(C(=O)O)c2)nc2ccc(Oc3ccc(F)cc3)nc21
2. Cn1c(COc2cccc(C(=O)O)c2)nc2ccc(Oc3ccccn3)cc21
3. Cn1c(COc2cccc(C(=O)O)c2)nc2ccc(Oc3ccc(Cl)c(F)c3)nc21
4. Cc1ccc(Oc2ccc3nc(COc4cccc(C(=O)O)c4)n(C)c3n2)cc1C

[78, 100, 92, 73]

Give its remaining at 0.5 h value. Item: `Cn1c(COc2cccc(C(=O)O)c2)nc2ccc(Oc3cccc(Cl)n3)cc21`
98

---

# protocol-summary: Tmax in Zucker diabetic fatty rat at 3 mg/kg, po dosed once daily for 14 days and followed by additional administration on day 15
# Format: ADME, organism-based
# assay-setup: in vivo
Exercise: state measured Tmax for each of the compounds provided.
Entry format: amount then unit.

Batch request: Tmax per item, same order as input.
1. Cn1c(COc2cccc(C(=O)O)c2)nc2ccc(Oc3ccc4c(c3)CCC4)nc21
2. Cn1c(COc2cccc(C(=O)O)c2)nc2ccc(Oc3ncc(Cl)cc3Cl)cc21
3. Cc1cnc(Oc2ccc3nc(COc4cccc(C(=O)O)c4)n(C)c3c2)c(C)c1
4. Cn1c(COc2cccc(C(=O)O)c2)nc2ccc(Oc3ncc(Cl)cc3F)cc21

1: 2 h; 2: 2.4 h; 3: 3.2 h; 4: 2 h

Give its Tmax value. Item: `Cc1cnc(Oc2ccc3nc(COc4cccc(C(=O)[O-])c4)n(C)c3c2)c(F)c1.[Na+]`
2 h

---

# protocol-summary: Aqueous thermodynamic solubility of the compound in pH 6.8 solution up to 4 hrs by HPLC-UV analysis
# Assay type: physicochemical
# assay-setup: read-out: Therm_solubility
Please mark true (1) if the recorded solubility thermodynamic at 4 h is equal to or greater than 5 µg/mL, and false (0) if it falls below.

The examples below pair each entry with its known result.
Does `Cn1c(COc2cccc(C(=O)O)c2)nc2ccc(Oc3ccc4c(c3)CCC4)nc21` have a reported solubility thermodynamic at 4 h of at least 5 µg/mL?
false (0)

Please do the same for `Cc1ccc(Oc2ccc3nc(COc4cccc(C(=O)O)c4)n(C)c3n2)cc1` as well.
true (1)

Please do the same for `Cc1ccc(Oc2ccc3nc(COc4cccc(C(=O)O)c4)n(C)c3n2)cc1F` as well.
true (1)

Continuing:
Does `Cc1ccc(C)c(Oc2ccc3nc(COc4cccc(C(=O)O)c4)n(C)c3c2)n1` have a reported solubility thermodynamic at 4 h of at least 5 µg/mL?
true (1)

Please do the same for `Cn1c(COc2cccc(C(=O)O)c2)nc2ccc(Oc3ncccc3Cl)cc21` as well.
true (1)

---

# target-entity: Peroxisome proliferator-activated receptor alpha (Homo sapiens) (UniProt Q07869)
# Sequence (Q07869 whole entry, the tested form may be a part): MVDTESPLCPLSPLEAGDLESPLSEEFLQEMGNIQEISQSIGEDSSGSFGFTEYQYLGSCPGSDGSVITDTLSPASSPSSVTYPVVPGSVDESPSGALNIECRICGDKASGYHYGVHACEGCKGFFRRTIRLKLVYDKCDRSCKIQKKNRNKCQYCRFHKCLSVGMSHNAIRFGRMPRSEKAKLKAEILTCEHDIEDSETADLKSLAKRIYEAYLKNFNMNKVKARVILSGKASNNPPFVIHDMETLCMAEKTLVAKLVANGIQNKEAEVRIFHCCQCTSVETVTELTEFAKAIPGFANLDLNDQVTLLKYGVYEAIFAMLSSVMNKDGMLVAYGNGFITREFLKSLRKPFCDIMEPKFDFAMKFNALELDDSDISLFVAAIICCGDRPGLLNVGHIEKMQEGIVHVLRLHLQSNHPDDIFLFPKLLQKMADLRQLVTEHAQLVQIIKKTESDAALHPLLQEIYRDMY
# protocol-summary: Agonist activity at recombinant human GAL4-DBD fused PPARalpha LBD expressed in COS7 cells at 10 uM after 24 hrs by luciferase reporter gene assay relative to 2-(4-tert-Butylphenoxy)-3-[4-[2-[(4-pyridin-2-ylbenzoyl)amino]ethoxy] phenyl]propionic acid
# Format: cell-based
Categories are defined by ranges of Emax, namely low band (below 5%), middle band (5% to below 20%), high band (20% or more)

The examples below pair each entry with its known result.
Which Emax band matches `Cc1ccc(Oc2ccc3nc(COc4cccc(C(=O)O)c4)n(C)c3n2)cc1F` ?
high band

Please do the same for `Cn1c(COc2cccc(C(=O)O)c2)nc2ccc(Oc3cccc(Cl)n3)cc21` as well.
middle band

Continuing:
Which Emax band matches `Cc1ccnc(Oc2ccc3nc(COc4cccc(C(=O)O)c4)n(C)c3c2)c1` ?
low band

Please do the same for `Cn1c(COc2cccc(C(=O)O)c2)nc2cnc(Oc3ccc4c(c3)CCC4)cc21` as well.
high band

Please do the same for `Cc1ccc(Oc2ccc3nc(COc4cccc(C(=O)O)c4)n(C)c3n2)c(C)c1` as well.
middle band

Please do the same for `Cn1c(COc2cccc(C(=O)O)c2)nc2ccc(Oc3ccc(Cl)c(F)c3)cc21` as well.
high band

Please do the same for `Cc1cc(Cl)cnc1Oc1ccc2nc(COc3cccc(C(=O)O)c3)n(C)c2c1` as well.
middle band

Please do the same for `Cc1cc(C)cc(Oc2ccc3nc(COc4cccc(C(=O)O)c4)n(C)c3n2)c1` as well.
middle band

Please do the same for `Cn1c(COc2cccc(C(=O)O)c2)nc2cnc(Oc3ccc(Cl)c(F)c3)cc21` as well.
middle band

Please do the same for `Cn1c(COc2cccc(C(=O)O)c2)nc2ccc(Oc3ncccc3F)cc21` as well.
low band

Please do the same for `Cc1ccc(Oc2ccc3nc(COc4cccc(C(=O)O)c4)n(C)c3n2)cc1C` as well.
high band

Please do the same for `Cn1c(COc2cccc(C(=O)O)c2)nc2ccc(Oc3ncccc3Cl)cc21` as well.
middle band

Please do the same for `Cc1cccnc1Oc1ccc2nc(COc3cccc(C(=O)O)c3)n(C)c2c1` as well.
middle band

Please do the same for `Cc1ccc(C)c(Oc2ccc3nc(COc4cccc(C(=O)O)c4)n(C)c3c2)n1` as well.
middle band

Please do the same for `Cc1cc(F)cnc1Oc1ccc2nc(COc3cccc(C(=O)O)c3)n(C)c2c1` as well.
low band

Please do the same for `Cc1ccc(Oc2ccc3nc(COc4cccc(C(=O)O)c4)n(C)c3n2)cc1` as well.
high band

---

# protocol-summary: AUC (0 to 24 hrs) in F344/DuCrlCrlj rat at 1000 mg/kg, po via gavage measured on day 28 post dose
# Format: ADME, organism-based
# Set-up: time < 24 hr, dose 1000 mg/kg, route oral
# assay-setup: in vivo
result-type: AUC at 24 h (µg·h/mL)
Numbers only, in µg·h/mL.

Give its AUC at 24 h value. Item: `Cc1cnc(Oc2ccc3nc(COc4cccc(C(=O)O)c4)n(C)c3c2)c(C)c1.Cl`
1080
